Reference source: PubChem BioAssay (NCI)

The reader will find reported growth values listed item by item below.
# Tested on: OVCAR-4 ovarian
# Assay text: NCI-60 one-dose screen, 48 h (100 = growth as untreated, 0 = no growth, -100 = all killed)
# Details: 10 µM unless noted
The panel holds about 83,000 compounds, 20% with a hit somewhere; the sample as a whole holds those more often.
Number in %, nothing else.

Examples with answers:
In [3]: df
Out[3]:
                                   molecule  readout_units  assay_value
0    O=C(N/N=C/c1c[nH]c2ccccc12)Nc1ccccc1Cl              %         53.9
1  CC1=C(C(=O)Nc2ccccc2)C(c2ccc3ccccc3c2)n2c(nc3ccccc32)N1 (stereo not given)              %        -35.4
2  COc1ccc(N=Nc2c(N)nn3c(-c4ccc(F)cc4)ccnc23)cc1              %         26.1
3  CCCCNC(=S)Nc1ccc(OCc2nc3ccc(Cl)cc3[nH]2)cc1              %         21.5
4  CCOC(=O)/C(F)=C/C1CC1C(c1ccccc1)c1ccccc1 (stereo not given)              %         87.3

Indicate its recorded growth; the molecule in question is CC(C)(C)C(=O)C1CC(C#N)=C2C=Cc3c(ccc4ccccc34)N21 (stereo not given)
79.3

Complete the entry with growth for "COc1ccc(NC(=O)Cn2c(/C=C/c3cccc(OC)c3)nc3ccccc3c2=O)cc1"
-30.1

Give the value of growth reported for the following: "COc1ccc2[nH]c(O)c(N=Nc3nc(-c4ccc(C#N)cc4)cs3)c2c1"
-46.8

Note down growth recorded for "N#C/C(=C/c1ccc([N+](=O)[O-])cc1)c1nnc(NC(=O)c2ccc(-n3c(=O)[nH]c4ccccc4c3=O)cc2)s1"
95.6

For the molecule O=C(c1ccc(O)cc1)C1[C@H](c2ccc(Cl)cc2)[C@@H](c2ccccc2)NC12C(=O)Nc1ccccc12 (stereo not given in full) , give its reported growth.
9.88

###

# Tested on: OVCAR-5 ovarian
# Assay text: NCI-60 one-dose screen, 48 h
# Details: 10 µM unless noted
# Procedure: Growth inhibition of the OVCAR-5 human tumor cell line is measured as a screen for anti-cancer activity. Cells are grown in 96 well plates and exposed to the test compound for 48 hours. Compounds are tested at a single concentration, which is 10^-5 M for most compounds. The reported endpoint is percent growth (GI% or GIPRCNT), where numbers from 0 - 100% represent growth inhibition, and numbers from -100% - 0 represent cell death. For example, a value of 40 represents 60% growth inhibition. […]
Compounds without any hit were thinned out: in the full panel of roughly 83,000, 20% have a hit. Activity calls are given as the source filed them. The calls were made as follows: active = growth percent below 10; inactive = the rest.
Write down the outcome that applies. Available outcomes: active, inactive

Compound	Classification
COc1ccc(NC(=O)CSc2nnc(-c3ccc(-c4nc5ccccc5[nH]4)cc3)o2)cc1	inactive
O=C(Nc1ccc(-c2ccc3c(c2)NC(=O)/C3=C\c2ccc[nH]2)cc1)Nc1ccc(Cl)c(Cl)c1	inactive
COc1cncc(-c2ccc3ncnc(N4CCc5ccc(Cl)cc54)c3c2)c1	inactive
FC(F)(F)c1cc2c(Cl)ncnc2n1CCC1CCOCC1	inactive
Oc1cncc(-c2ccc3ncnc(N4CCc5cc(F)c(Cl)cc54)c3c2)c1	inactive
CCc1ccc(SC2c3cc(OC)ccc3Oc3nc(N)c(C#N)c(N)c32)cc1 (centres undefined)	active
C=CC[n+]1cccc2c3ccccc3ccc21	inactive
O=C1CCC(N2C(=O)c3cccc(NCCOCCOCCOCCC(=O)NCCCC(=O)NC(c4ccc5c(c4)OCO5)c4cc(Cl)c5cccnc5c4O)c3C2=O)C(=O)C1 (centres undefined)	inactive

Now let's try a different one.
# outcome recorded in this test, key = "COc1ccc2[nH]c(=O)cc(-n3ncc(C(=O)/C=C/c4cc(OC)c(OC)c(OC)c4)c3C)c2c1"
active
